Quick reference: protein stability index of the listed items.
B1: FAM189A2 (parent)
chain: NLAGFILGCQGAQFVSSVPRCDLV

- Variants of: B1
- protocol: protein stability index of a GFP-peptide fusion (GPS, HEK-293T) (PSI 1-6); higher = more stable;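 further: lentivirally expressed fusions sorted by FACS into six bins by GFP to DsRed ratio, PSI derived from sequencing read proportions per bin multiplied by bin number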
- measurement-setup: c terminus: a fixed tail appended
Give the figure only, with no unit attached.

Look over these answered cases.
seq	protein stability index
GLAGFILGCQGAQFVSSVPRCDLV [N1G]	1.51
NLAGFILGCQGAQPVSSVPRCDLV [F14P]	2.4
NLAGFILGCQGAQFVSSRPRCDLV [V18R]	1.78
NPAGFILGCQGAQFVSSVPRCDLV [L2P]	1.26
NLAGFSLGCQGAQFVSSVPRCDLV [I6S]	1.98
NLAGFILGCQGAQFVSSVPRMDLV [C21M]	2.81
NLAGFILGCQGAQFVSSVPECDLV [R20E]	1.96
NLAGFILGCQGAQFVSSSPRCDLV [V18S]	2.4
PLAGFILGCQGAQFVSSVPRCDLV [N1P]	2.63
NLAGFILGCQGAQFVSSVPKCDLV [R20K]	2.1

## Task Which protein stability index value is on record for NLAGFILGCQGHQFVSSVPRCDLV [A12H] ?
## Result 1.03

## Task Which protein stability index value is on record for NLAGFILGCQGAQFVSSVPRRDLV [C21R] ?
## Result 1.64

## Task Which protein stability index value is on record for NLAGFILGCQGAQFVSSVPRCDYV [L23Y] ?
## Result 2.52

src = the supplement of paper PMC10567573
